Just for reference, patent US20240382494A1 is where these values come from.

Listing: pIC50 of selected compounds
- TESTED SYSTEM: UniProt:P0DTD1
- METHOD DESCRIPTION: FRET-based PLpro enzymatic assay
- Assay type: biochemical
- CONDITIONS USED: 200 nM PLpro, 10 μM FRET substrate, 30 min preincubation at 30° C.; read-out: IC50
- Method: The SARS-CoV-2 PL^pro enzymatic assays were carried out as follows. The assay was assembled in 96-well plates with 100 μl of 200 nM PL^Pro protein in PL^Pro reaction buffer [50 mM Hepes (pH 7.5), 0.01% Triton X-100, and 5 mM DTT]. Then, 1 μl of testing compound at various concentrations was added to each well and incubated at 30° C. for 30 minutes. […] The reaction was monitored in a Cytation 5 image reader with filters for excitation at 360/40 nm and emission at 460/40 nm at 30° C. for 1 hour. […]
pIC50: −log10 of the molar value.

1. CCn1ccc(-c2cc([C@@H](C)NC(=O)c3cc(N4CCN(C)CC4)ccc3C)c3ccccc3n2)n1	> 6.30
2. Cc1ccc(OCCN(C)C)cc1C(=O)N[C@@H](C)c1cc(-c2ccnn2C)nc2ccccc12	6.00 to 6.30
3. Cc1ccc(N2CCN(C)C3(CC3)C2)cc1C(=O)N[C@H](C)c1cc(-c2ccn(C)n2)nc2ccccc12	6.00 to 6.30
4. Cc1ccc(N(C)C2(C)CN(C)C2)cc1C(=O)N[C@H](C)c1cc(-c2cnn(C)c2)nc2ccccc12	5.30 to 6.00
5. Cc1ccc(OCCN(C)C)cc1C(=O)N[C@H](C)c1cc(-c2cnn(C)c2)nc2ccccc12	> 6.30

Retrieve pIC50 on UniProt:P0DTD1; query `Cc1ccc(OCCN(C)C)cc1C(=O)N[C@H](C)c1cc(-c2ccc(CN3CCOCC3)s2)nc2ccccc12` > 6.30

Jot down pIC50 (UniProt:P0DTD1) of `Cc1ccc(OCCN(C)C)cc1C(=O)N[C@H](C)c1cc(-c2cnn(CCC#N)c2)nc2ccccc12` . < 5.30

Report pIC50 under test system UniProt:P0DTD1 for `Cc1ccc(OCCN(C)C)cc1C(=O)N[C@H](C)c1cc(-c2cnn(C(C)(C)C)c2)nc2ccccc12` . > 6.30
